List of GI50 values.
System: HS 578T breast
Assay: NCI tumour cell line growth inhibition, 48 h
assay_endpoint: GI50

>  <compound>
CCN(CC)CCCC(C)Nc1nc(C)cc(Nc2ccc3nc(C)cc(N)c3c2)n1 (stereo not given)

>  <system_name>
HS 578T breast

>  <result>
24600 nM

$$$$
>  <compound>
CC#C/C(=N\OC[C@H]1COCCN1)c1ccc2ncnc(Nc3ccc(OCc4cccc(F)c4)c(Cl)c3)c2c1

>  <system_name>
HS 578T breast

>  <result>
1890 nM

$$$$
>  <compound>
Nc1ccccc1NC(=O)c1ccc(CCCC(=O)Nc2ccc(C3CC3N)cc2)cc1 (stereo not given)

>  <system_name>
HS 578T breast

>  <result>
2820 nM

$$$$
>  <compound>
COc1cc(/C=C/c2cc(/C=C/c3ccc(O)c(OC)c3)nc(N)n2)ccc1O

>  <system_name>
HS 578T breast

>  <result>
524 nM

$$$$
>  <compound>
O=c1c(O)cccc2cc(O)c(O)c(O)c12

>  <system_name>
HS 578T breast

>  <result>
5420 nM

$$$$

###

Tested on: CCRF-CEM leukemia
Assay: NCI tumour cell line growth inhibition, 48 h
Where a SMILES comes first, the peptide text is derived from it. [ ]: non-standard residue; d: D form. The star is where a group is joined. Tyr(3-Br) = N[C@@H](Cc1ccc(O)c(Br)c1)C(=O)O; Boc = CC(C)(C)OC(=O)*

>  <molecule>
CC(=O)NNc1nc(C)c(C(/C=C/c2ccc([N+](=O)[O-])cc2)=N/NC(N)=S)s1

>  <TGI>
> 100 µM

$$$$
>  <molecule>
Cc1cc(O)c(C2=NN(c3ccc(S(N)(=O)=O)cc3)C(c3ccc(N(C)C)cc3)C2)c(C)c1Cl (stereo unspecified)

>  <TGI>
43.6 µM

$$$$
>  <molecule>
CN(/N=C/c1cccc2cccnc12)c1ccc([N+](=O)[O-])cc1

>  <TGI>
> 100 µM

$$$$
>  <molecule>
O=C(/C=C/C=C/c1c(C2CC2)nc2ccccc2c1-c1ccc(F)cc1)c1cccs1

>  <TGI>
> 100 µM

$$$$
>  <molecule>
Cc1nc(C(N)=S)sc1C(/C=C/c1ccc(Cl)c(Cl)c1)=N/NC(C)(C)C

>  <TGI>
> 100 µM

$$$$
>  <molecule>
CCOC(=O)C(=O)Nc1ccc(Cl)cc1C

>  <TGI>
> 100 µM

$$$$
>  <molecule>
CCCCSC1=N/C(=C\c2ccc(N(C)C)cc2)C(NN)=N1

>  <TGI>
> 100 µM

$$$$
>  <molecule>
COC(=O)Nc1nc2ccc(C(=O)c3ccc(N(C)C4COC4)cc3)cc2[nH]1

>  <TGI>
> 100 µM

$$$$
>  <molecule>
COC(=O)[C@H](Cc1ccc(O)c(Br)c1)NC(=O)[C@H](Cc1ccc(O)cc1)NC(=O)OC(C)(C)C (Boc-Tyr-[Tyr(3-Br)]-OMe)

>  <TGI>
51.2 µM

$$$$
>  <molecule>
CC(C)(C)c1cc2c(O)c(c1)Cc1cc(C(C#N)(Cc3ccc4ccccc4c3)Cc3ccc4ccccc4c3)cc(c1O)Cc1cc(C(C)(C)C)cc(c1O)Cc1cc(C(C#N)(Cc3ccc4ccccc4c3)Cc3ccc4ccccc4c3)cc(c1O)C2

>  <TGI>
> 100 µM

$$$$
>  <molecule>
CCN(CC)CCCC(C)Nc1ccnc2ccc3nn(C)nc3c12 (stereo unspecified)

>  <TGI>
> 100 µM

$$$$
>  <molecule>
CN1CCCCC(C#N)(c2ccccc2)CC1 (stereo unspecified)

>  <TGI>
> 100 µM

$$$$
>  <molecule>
CN(C)c1ncc(-c2ccc(C(F)(F)F)cc2)c(NC2CCCCCC2)n1

>  <TGI>
35.8 µM

$$$$
>  <molecule>
CC(=O)O[C@@H]1[C@@H](O)C2=C3[C@]4(C)[C@@H]1C(C)(C)C(=O)C[C@@H]4[C@]3(O)[C@H](OC(C)=O)[C@@]1(C[C@@H]1C)C2=O

>  <TGI>
34.1 µM

$$$$
>  <molecule>
CC(C)(C)OC(=O)N(O)CCCn1cnc2c(N)ncnc21

>  <TGI>
> 100 µM

$$$$
>  <molecule>
COc1ccc(/C=C2\CCC(C)/C(=C\c3ccc(OC)c(OC)c3)C2=O)cc1OC (stereo unspecified)

>  <TGI>
7.6 µM

$$$$
>  <molecule>
O=C(C[n+]1ccccc1)N/N=C(\Cc1nc2ccc([N+](=O)[O-])cc2[nH]c1=O)C(=O)Nc1cc(Cl)c(Cl)cc1Cl

>  <TGI>
> 100 µM

$$$$
>  <molecule>
CCN(CC)c1ccc2c(c1)Oc1nc(N)c(C#N)c(N)c1C2Sc1ccc(OC)cc1 (stereo unspecified)

>  <TGI>
5.47 µM

$$$$
>  <molecule>
O=C(Nc1ccccc1O)c1ccc(CNc2ccnc(C(F)(F)F)c2)cc1

>  <TGI>
12.8 µM

$$$$
>  <molecule>
C=C(C)C1CC/C(C)=C/CC[C@]2(C)O[C@H]2CC/C(COC(C)=O)=C\[C@@H]1O (stereo partly specified)

>  <TGI>
> 50 µM

$$$$
>  <molecule>
CC1(C)OB(O)OC1(C)C

>  <TGI>
> 100 µM

$$$$

###

Recorded measurements of TGI, one per entry
Tested on: MOLT-4 leukemia
Experiment: NCI tumour cell line growth inhibition, 48 h

>  <molecule>
CCCCOC(=O)NC(Nc1cccc(C(F)(F)F)c1)(C(F)(F)F)C(F)(F)F

>  <TGI>
> 100 µM

$$$$
>  <molecule>
CN(C)C/C=C/C(=O)Nc1cc2c(Nc3ccc(F)c(Cl)c3F)ncnc2cc1OCCOC(F)F

>  <TGI>
5.43 µM

$$$$
>  <molecule>
CC(C)(C)NC(=O)NC12CC3CC(CC(F)(C3)C1)C2

>  <TGI>
> 100 µM

$$$$
>  <molecule>
COc1cc(NC(C)=O)ccc1C(=O)NN1C(=O)C(Cl)C1c1ccco1 (centres undefined)

>  <TGI>
> 100 µM

$$$$
>  <molecule>
CN(C)/N=C(/c1nc2ccc([N+](=O)[O-])cc2[nH]c1=O)C(O)c1ccco1 (centres undefined)

>  <TGI>
> 100 µM

$$$$
>  <molecule>
Cc1nc([C@H]2CC[C@H]3[C@@H]4CCC5=CC(=O)CC[C@]5(C)[C@H]4CC[C@]23C)cs1

>  <TGI>
> 100 µM

$$$$
>  <molecule>
Cc1nc(C(N)=S)sc1C(/C=C/c1ccc(Cl)c(Cl)c1)=N/NC(C)(C)C

>  <TGI>
80.5 µM

$$$$
>  <molecule>
Cc1cc(C)c2c(c1)CC1(Cc3c(C)ccc(C)c3C1=O)C2=O (centres undefined)

>  <TGI>
> 100 µM

$$$$
>  <molecule>
CN(C)c1ncc(-c2ccc(C(F)(F)F)cc2)c(NC2CCCCCC2)n1

>  <TGI>
34.7 µM

$$$$

###

Test system: UO-31 renal
Assay: NCI tumour cell line growth inhibition, 48 h
Documented TGI across a set of molecules

>  <molecule>
CC1(C)CC23CC(C)(C)c4cccc(c42)OCc2ccc4ccc5ccc(nc5c4n2)COc2cccc1c23

>  <TGI>
> 50 µM

$$$$
>  <molecule>
NC(=O)NC(=O)c1cccc(CNc2ccc(C(=O)N[C@@H](CCC(=O)O)C(=O)O)cc2)n1

>  <TGI>
> 100 µM

$$$$
>  <molecule>
c1ccc(C2=NOC3(c4ccccc4)SC4CCCCC4CN23)cc1 (stereo not drawn)

>  <TGI>
> 100 µM

$$$$

###

Tested on: SW-620 colon
Experiment: NCI tumour cell line growth inhibition, 48 h
Where a SMILES comes first, the peptide text is derived from it. [ ]: non-standard residue; d: D form. The star is where a group is joined. Tyr(3-Br) = N[C@@H](Cc1ccc(O)c(Br)c1)C(=O)O; Boc = CC(C)(C)OC(=O)*
assay_endpoint: TGI

>  <compound>
CCN(CC)CCCNc1ncc(C)c2[nH]c3ccncc3c12

>  <assay_endpoint>
TGI

>  <result>
36.9 µM

$$$$
>  <compound>
COC1=CC(=O)C(OC)=C(OC)C1=O

>  <assay_endpoint>
TGI

>  <result>
35.1 µM

$$$$
>  <compound>
COC(=O)[C@H](Cc1ccc(O)c(Br)c1)NC(=O)[C@H](Cc1ccc(O)cc1)NC(=O)OC(C)(C)C (Boc-Tyr-[Tyr(3-Br)]-OMe)

>  <assay_endpoint>
TGI

>  <result>
> 100 µM

$$$$
>  <compound>
CS(=O)(=O)c1c(N)c2nc(Cl)cn2c2nc3ccccc3nc12

>  <assay_endpoint>
TGI

>  <result>
> 100 µM

$$$$
>  <compound>
Cc1ccc([N+](=O)[O-])cc1S(=O)(=O)Nc1ccc(C2=NNC(c3ccccc3O)C2)cc1 (stereo not drawn)

>  <assay_endpoint>
TGI

>  <result>
> 100 µM

$$$$
>  <compound>
COc1cc2c3c(n(CCCNCCCNCCCNCCCN)c(=O)c2cc1OC)-c1cc2c(cc1C3=O)OCO2

>  <assay_endpoint>
TGI

>  <result>
13.9 µM

$$$$
>  <compound>
CC(=O)O[C@H]1CCC2[C@@H]3CCC4=C(O)C(=O)C(C#N)C[C@]4(C)C3CC[C@@]21C (stereo partly drawn)

>  <assay_endpoint>
TGI

>  <result>
> 100 µM

$$$$
>  <compound>
CN(C)/N=C(/c1nc2ccc([N+](=O)[O-])cc2[nH]c1=O)C(O)c1ccco1 (stereo not drawn)

>  <assay_endpoint>
TGI

>  <result>
> 100 µM

$$$$
>  <compound>
Cc1nc2c(nc1C)-c1c(c3c(n1C)C(=O)CCC3)C(=O)C2=O

>  <assay_endpoint>
TGI

>  <result>
0.534 µM

$$$$
>  <compound>
[N-]=[N+]=Nc1c(C=O)c(=O)n(-c2ccccc2)c2ccccc12

>  <assay_endpoint>
TGI

>  <result>
7.53 µM

$$$$
>  <compound>
Clc1ccccc1C1=NN(c2ccccc2)C2c3ccccc3OCC12 (stereo not drawn)

>  <assay_endpoint>
TGI

>  <result>
> 100 µM

$$$$
>  <compound>
Cc1nc(CN2CCCCC2)c(O)c(=O)[nH]1

>  <assay_endpoint>
TGI

>  <result>
> 100 µM

$$$$
>  <compound>
COc1ccc(/C=C2\CC(C)CC3C2=NN(C(C)=O)C3c2ccc(OC)cc2)cc1 (stereo not drawn)

>  <assay_endpoint>
TGI

>  <result>
59 µM

$$$$
>  <compound>
O=Cc1ccc(-c2ccc(-c3nc4ccccc4o3)cc2)s1

>  <assay_endpoint>
TGI

>  <result>
> 100 µM

$$$$
>  <compound>
C/C(=N\Nc1nc2ccccc2n1C)c1cnccn1

>  <assay_endpoint>
TGI

>  <result>
> 100 µM

$$$$
>  <compound>
Cc1ccc(N=N/C(=N/NC(=O)c2cc(Cl)ccc2C(=O)c2ccccc2)c2ccc(N(CCC#N)CCC#N)cc2C)cc1

>  <assay_endpoint>
TGI

>  <result>
> 100 µM

$$$$
>  <compound>
O=S(=O)(SCc1ccccc1)C(c1ccccc1)c1ccccc1

>  <assay_endpoint>
TGI

>  <result>
26.9 µM

$$$$
>  <compound>
Cc1ccc2c(sc(-c3ccc4c(c3)sc(-c3ccc5c(c3)sc(-c3ccc(N(C)C)cc3)[n+]5C)[n+]4C)[n+]2C)c1S(=O)(=O)O (tested in a mixture with another compound)

>  <assay_endpoint>
TGI

>  <result>
> 100 µM

$$$$
